design: species or system male mice; conditions: mouse, in vivo, sc
endpointLabel: Analgesia ED 50 Phenyl-p-Quinone Writhing Test (mg/kg)
Give the number; mg/kg is assumed, so skip it.

The cases that follow already have their Analgesia ED 50 Phenyl-p-Quinone Writhing Test on record.
CCOC(=O)[C@]1(c2ccccc2)C=C[C@@H](N(C)C)CC1 (relative stereo) = 14.6
CCOC(=O)[C@]1(c2ccccc2)C=C[C@H](N(C)C)CC1 (relative stereo) = 3.0
CCOC(=O)C1(c2ccccc2)CCN(C)CC1 [Dolantin] = 6.3

Ask | Quick check: Analgesia ED 50 Phenyl-p-Quinone Writhing Test of CCOC(=O)[C@]1(c2ccccc2)C=C[C@H](N2CCCCC2)CC1 (relative stereo) ?
Reply | 5.3

====

assay: in vivo; conditions: mouse, sc
Could you mark each record Fulfilled if its LD50 at 48 h falls strictly under 200 mg/kg, and Not fulfilled if it equals or exceeds it?

For orientation, consider the following solved cases.
CCOC(=O)[C@]1(c2ccccc2)C=C[C@@H](N2CCCCC2)CC1 (relative stereo) = Not fulfilled
CCOC(=O)[C@]1(c2ccccc2)C=C[C@H](N(C)C)CC1 (relative stereo) = Fulfilled
CCOC(=O)C1(c2ccccc2)CCN(C)CC1 [Dolantin] = Fulfilled
CCOC(=O)[C@]1(c2ccccc2)C=C[C@H](N2CCCCC2)CC1 (relative stereo) = Fulfilled

Attention now shifts to the item below.
Ask | Field: below-cutoff. Rule: recorded LD50 at 48 h strictly less than 200 mg/kg. Subject: CCOC(=O)[C@]1(c2ccccc2)C=C[C@@H](N(C)C)CC1 (relative stereo)
Reply | Fulfilled

====

LD50 at 48 h reference
assay: in vivo; details: mouse, po
Give the number; mg/kg is assumed, so skip it.

CCOC(=O)[C@]1(c2ccccc2)C=C[C@@H](N2CCC(c3ccccc3)CC2)CC1 (relative stereo) = 850

Ask | Quick check: LD50 at 48 h of CCOC(=O)[C@]1(c2ccccc2)C=C[C@@H](N(C)C)CC1 (relative stereo) ?
Reply | 490

Ask | Consider next the molecule CCOC(=O)C1(c2ccccc2)CCN(C)CC1 [Dolantin] in the same way.
Reply | 252

Ask | Consider next the molecule CCOC(=O)[C@]1(c2ccccc2)C=C[C@H](N(C)C)CC1 (relative stereo) in the same way.
Reply | 297

Ask | Consider next the molecule CCOC(=O)[C@]1(c2ccccc2)C=C[C@H](N2CCC(c3ccccc3)CC2)CC1 (relative stereo) in the same way.
Reply | 800

Ask | Consider next the molecule CCOC(=O)[C@]1(c2ccccc2)C=C[C@H](N2CCN(c3ccccc3)CC2)CC1 (relative stereo) in the same way.
Reply | 1600

====

test: in vivo; settings: mouse, po
endpointLabel: LD50 at 48 h

CCOC(=O)[C@]1(c2ccccc2)C=C[C@H](N2CCN(c3ccccc3OC)CC2)CC1 (relative stereo) = ~2000 mg/kg
CCOC(=O)[C@]1(c2ccccc2)C=C[C@@H](N2CCN(c3ccccc3OC)CC2)CC1 (relative stereo) = > 1600 mg/kg

Could you now consider this next compound?
Ask | Quick check: LD50 at 48 h of CCOC(=O)[C@]1(c2ccccc2)C=C[C@@H](N2CCN(c3ccccc3)CC2)CC1 (relative stereo) ?
Reply | ~1600 mg/kg
